// reported k-1 (step 1, dissociation) per item
target: HIV-1 YU2 gp120 (HIV-1 YU2, UniProt P35961 32-498); assay: SPR

binder: MVN(Q81K/M83R) (natural protein) MPNFSHTCSSINYDPDSTILSAECQARDGEWLPTELRLSDHIGNIDGELQFGDQNFQETCQDCHLEFGDGEQSVWLVCTCKTRDGEWKSTQILLDSQIDNNDSQLEIG
readout units: s⁻¹
k-1 (step 1, dissociation): 0.03
//
binder: MVN_G43E (natural protein) MPNFSHTCSSINYDPDSTILSAECQARDGEWLPTELRLSDHIENIDGELQFGDQNFQETCQDCHLEFGDGEQSVWLVCTCQTMDGEWKSTQILLDSQIDNNDSQLEIG
readout units: s⁻¹
k-1 (step 1, dissociation): 0.244
//
binder: MVN_G43E/G85Q (natural protein) MPNFSHTCSSINYDPDSTILSAECQARDGEWLPTELRLSDHIENIDGELQFGDQNFQETCQDCHLEFGDGEQSVWLVCTCQTMDQEWKSTQILLDSQIDNNDSQLEIG
readout units: s⁻¹
k-1 (step 1, dissociation): 0.051

Source listed as paper PMC5944358.
